Test system: SK-MEL-28 melanoma
Experiment: NCI-60 one-dose screen, 48 h
Conditions: 10 µM unless noted
This is part of a sample that, as a whole, favours compounds with a hit. Of some 83,000 tested, about 20% had one in any assay. Calls of active or inactive are those of the source. Rule for the calls: active = growth percent below 10; inactive = the rest.
Outcome codes: active, inactive

INSERT INTO results (smiles, label_value) VALUES
  ('CCN(CC)c1ccc(/C=C2/NC(=O)NC2=O)cc1', 'inactive'),
  ('COc1cc(/C=C\c2cc(/C=C\c3ccc(O)c(OC)c3)n(C(=O)Nc3ccc(C(F)(F)F)cc3)n2)ccc1O', 'inactive'),
  ('NS(=O)(=O)c1ccc(CCn2c(SCC(=O)N/N=C/c3cc4ccccc4[nH]3)nc3ccccc3c2=O)cc1', 'inactive'),
  ('COc1ccc(-c2nn(C(=O)NCCN(C)C)cc2-c2ccncc2)cc1Cl', 'inactive'),
  ('c1ccc(-c2ccc(-c3ccccc3)[nH]2)cc1', 'inactive'),
  ('CCCCCCCC/C=C/CCCCCCCC1=NC(C)(C)CN1c1ccccc1', 'inactive'),
  ('COc1cnc2c(c1)C(=O)c1c-2n(CCCN2CCNCC2)c(=O)c2cc(Cl)ccc12', 'active'),
  ('COc1ccc2c(c1)sc1nc(-c3ccccc3)c(-c3cccc4ccccc34)n12', 'inactive'),
  ('C#CCO[C@H]1CC[C@H](OCC#C)[C@@H]2[C@H]1[C@H]1C[C@@H]3[C@@]4(C)CCC[C@@](C)(C(=O)OC)[C@@H]4CC[C@@]23C=C1C(C)C', 'inactive'),
  ('O=C(Nc1cccc(-n2ccc3c(NC(=O)c4ccccc4)nccc32)c1)c1ccc(N2CCOCC2)c(C(F)(F)F)c1', 'inactive');

----------
Test system: SR leukemia
Experiment: NCI-60 one-dose screen, 48 h (100 = growth as untreated, 0 = no growth, -100 = all killed)
Settings: 10 µM unless noted
The panel holds about 83,000 compounds, 20% with a hit somewhere; the sample as a whole holds those more often.
Parameter threshold = 30%. Response is class 1 when growth meets or exceeds it, else class 0.

INSERT INTO results (molecule, label_value) VALUES
  ('CS(=O)(=O)c1ccc(C(=O)N/N=C/c2ccccc2O)cc1', 'class 0'),
  ('S=C(Cc1ccccc1)N1CCN(c2ccccc2Cl)CC1', 'class 1'),
  ('CC1=CC(=O)OC1C/C=C(\C)CCC1[C@@]2(C)CCC[C@@](C)(C(=O)O)C2CC[C@@]1(C)O (some centres undefined)', 'class 1'),
  ('O=S1(=O)NCCN1CCNc1nccc(-c2c(-c3cccc(O)c3)nc3sccn23)n1', 'class 1'),
  ('Cc1c(C(=O)Nc2ccccc2F)sc2c(=O)[nH]cnc12', 'class 0'),
  ('CCCCCCCC/C=C/CCCCCCCC1=NC(C)(C)CN1C(C)C', 'class 0'),
  ('Cc1cc(-c2ccccc2)on1', 'class 1'),
  ('O=[N+]([O-])c1ccc(N=Nc2c(NNc3ccc([N+](=O)[O-])cn3)cc(S(=O)(=O)O)c3ccccc23)nc1', 'class 1'),
  ('CC(C)(C)c1ccc(C(=O)Nc2sc3cc(O)ccc3c2C(N)=O)cc1', 'class 1');

----------
In this section we review reported growth values for a set of compounds.
System: RXF 393 renal
Experiment: NCI-60 one-dose screen, 48 h (100 = growth as untreated, 0 = no growth, -100 = all killed)
Details: 10 µM unless noted
About 83,000 compounds went through this panel and 20% of them were active in at least one assay; those are over-represented in the sample as a whole.
parameter-measured: growth (%)

INSERT INTO assay_data (compound, study_system, number) VALUES
  ('CC(C)(C)c1nn(-c2ccccc2)c2c1C(=O)CSC(c1ccccc1Cl)N2 (stereo unspecified)', 'RXF 393 renal', -10.4),
  ('C[Si](C)(C)C(c1ccccc1)c1ccccc1', 'RXF 393 renal', 126),
  ('Oc1ccc(-c2nnc3c4[nH]ccc4ncn23)cc1', 'RXF 393 renal', 113),
  ('CCN1C(=O)N(CC)C2C1NN=c1s/c(=C\c3ccc(Br)cc3)c(=O)n12 (stereo unspecified)', 'RXF 393 renal', 40.5),
  ('CCN(CC)c1ccc2c(cc1=O)[C@@H](NC(C)=O)CCc1cc(OC)c(OC)c(OC)c1-2', 'RXF 393 renal', 58.8),
  ('C=CCN(CC#N)CC=C', 'RXF 393 renal', 112);

----------
System: SNB-75 CNS
Test: NCI-60 one-dose screen, 48 h (100 = growth as untreated, 0 = no growth, -100 = all killed)
Settings: 10 µM unless noted
The panel holds about 83,000 compounds, 20% with a hit somewhere; the sample as a whole holds those more often. Active and inactive are the calls of the source. How the source made its calls: active means growth percent below 10; inactive means the rest.
parameter-measured: growth

INSERT INTO assay_data (compound, parameter_measured, result) VALUES
  ('CC(C)(C)[Si](C)(C)OC1[C@@H](O[Si](C)(C)C(C)(C)C)[C@@H](CNC(=O)NC(=O)NC(=O)CI)O[C@H]1n1cnc2c(NC(=O)Nc3ccccc3)ncnc21 (stereo partly specified)', 'growth', '68.1% (inactive)'),
  ('COc1cc(C2CC(=O)Nc3c2cnn3C)cc(OC)c1OC (stereo unspecified)', 'growth', '92% (inactive)'),
  ('COc1cc(NCC(O)CN(CC(C)C)CC(C)C)c2ncccc2c1 (stereo unspecified)', 'growth', '82.8% (inactive)'),
  ('COc1cc2c(=O)n(CCCN(C)C)c3c4cc[nH]c4ncc3c2cc1OC', 'growth', '47.9% (inactive)'),
  ('CCN(CC)c1ccc2c(cc1=O)[C@@H](NC(C)=O)CCc1cc(OC)c(OC)c(OC)c1-2', 'growth', '22.1% (inactive)'),
  ('c1ccc(-c2ccc(-c3ccccc3)[nH]2)cc1', 'growth', '87.9% (inactive)'),
  ('CCN(C(=O)CCl)C(C)(C)C(SSSC(c1ccc(Cl)cc1)C(C)(C)N(CC)C(=O)CCl)c1ccc(Cl)cc1 (stereo unspecified)', 'growth', '84.3% (inactive)'),
  ('O=S1(=O)NCCN1CCNc1nccc(-c2c(-c3cccc(O)c3)nc3sccn23)n1', 'growth', '73.3% (inactive)'),
  ('COc1cc(-c2nc(-c3ccc(-c4nc5ccc(F)cc5[nH]4)cc3)no2)cc(OC)c1OC', 'growth', '76.6% (inactive)'),
  ('O=C1NN(C(=O)c2ccccc2)C(c2ccc(Cl)c(Cl)c2)=C/C1=C\c1ccccc1[N+](=O)[O-]', 'growth', '25.1% [6.75 µM] (inactive)'),
  ('O=c1oc2ccccc2cc1-c1cc(-c2ccc(-c3cc(-c4cc5ccccc5oc4=O)nc(-c4cc5ccccc5oc4=O)c3)cc2)cc(-c2cc3ccccc3oc2=O)n1', 'growth', '97.5% (inactive)');

----------
Collected growth values appear next to each entry.
Test system: OVCAR-5 ovarian
Assay: NCI-60 one-dose screen, 48 h (100 = growth as untreated, 0 = no growth, -100 = all killed)
Conditions: 10 µM unless noted
About 83,000 compounds went through this panel and 20% of them were active in at least one assay; those are over-represented in the sample as a whole.
parameter-measured: growth (%)

INSERT INTO assay_data (compound, study_system, parameter_measured, units_of_measure, number) VALUES
  ('CC(C)(C)c1ccc(C(=O)Nc2sc3cc(O)ccc3c2C(N)=O)cc1', 'OVCAR-5 ovarian', 'growth', '%', 99.3),
  ('Cc1ccsc1C(=O)CC(=O)C(F)(F)C(F)(F)C(F)(F)F', 'OVCAR-5 ovarian', 'growth', '%', 97.4),
  ('CSc1nc(N)c2[nH]c(-c3cc4ccccc4[nH]c3=O)nc2n1', 'OVCAR-5 ovarian', 'growth', '%', 119),
  ('O=C(/C=C/c1ccc(F)cc1)N1CCN(C(=O)/C=C/c2ccc(C(F)(F)F)cc2)CC1', 'OVCAR-5 ovarian', 'growth', '%', 109),
  ('COc1ccc(-c2cc(C(=O)Nc3ccc(C)cc3)nc3[nH]c(=O)sc23)cc1', 'OVCAR-5 ovarian', 'growth', '%', 100),
  ('NC(=S)N1N=C(c2ccc(Cl)cc2)CC1c1cc2ccccc2[nH]c1=O (configuration not stated)', 'OVCAR-5 ovarian', 'growth', '%', 108),
  ('COC(=O)c1ccc2c(c1)nc(-c1cc3ccccc3[nH]c1=O)n2-c1cc(C(C)(C)C)[nH]n1', 'OVCAR-5 ovarian', 'growth', '%', 96.6),
  ('C=C[C@H]1CCC/C=C/[C@@H]2C[C@H](O)C[C@H]2[C@H](O)/C=C/C(=O)O1', 'OVCAR-5 ovarian', 'growth', '%', 13.4),
  ('COc1ccc(CC2c3cc(OC)c(OC)cc3CC[N+]2(C)CCC(=O)OCCCCCOC(=O)CC[N+]2(C)CCc3cc(OC)c(OC)cc3C2Cc2ccc(OC)c(OC)c2)cc1OC (configuration not stated)', 'OVCAR-5 ovarian', 'growth', '%', 103),
  ('O=C(CCl)N1c2ccccc2Oc2ccc3ccccc3c21', 'OVCAR-5 ovarian', 'growth', '%', 22.4),
  ('CC(=O)N1N=C(C2C(=O)N(C)C(=O)N(C)C2=O)CC1c1ccccc1C(=O)O (configuration not stated)', 'OVCAR-5 ovarian', 'growth', '%', 104),
  ('COc1ccc(-c2cnnn2-c2nonc2-n2cccc2)cc1', 'OVCAR-5 ovarian', 'growth', '%', 37.2),
  ('CS(=O)(=O)c1ccc(C(=O)N/N=C/c2ccc3c(c2)OCO3)cc1', 'OVCAR-5 ovarian', 'growth', '%', 116),
  ('Cc1ccc(NC(=O)c2cc(NCc3cc(O)ccc3O)ccc2O)cc1', 'OVCAR-5 ovarian', 'growth', '%', 125),
  ('O=S1(=O)NCCCN1CCNc1nccc(-c2c(-c3cccc(O)c3)nc3sccn23)n1', 'OVCAR-5 ovarian', 'growth', '%', 108),
  ('C=C1C(=O)O[C@H]2[C@H]1CC/C(COC(=O)NCc1cn(C)c3ccccc13)=C\CC[C@@]1(C)O[C@@H]21', 'OVCAR-5 ovarian', 'growth', '%', 23),
  ('CCN1C(=O)N(CC)C2C1NC(=O)N2/N=C/C=C/c1ccccc1 (configuration not stated)', 'OVCAR-5 ovarian', 'growth', '%', 80.1),
  ('COc1ccc2[nH]cc(C3(c4c[nH]c5ccc(OC)cc45)C(=O)Nc4ccc(Cl)cc43)c2c1', 'OVCAR-5 ovarian', 'growth', '%', 89.1),
  ('O=C1/C(=C/c2cc(F)cc(F)c2)Cc2cc(F)cc(F)c21', 'OVCAR-5 ovarian', 'growth', '%', 96.6),
  ('NS(=O)(=O)c1ccc(CCn2c(SCC(=O)N/N=C/c3cccnc3)nc3ccccc3c2=O)cc1', 'OVCAR-5 ovarian', 'growth', '%', 108),
  ('CCOc1cc(/C=N\NC(=O)C[N+](C)(C)C)ccc1O', 'OVCAR-5 ovarian', 'growth', '%', 101),
  ('COc1cc(Cl)cc(-c2nn(C(=O)NCCN3CCOCC3)cc2-c2ccncc2)c1', 'OVCAR-5 ovarian', 'growth', '%', 99.5),
  ('COc1cc2ncnc(Nc3ccc(S(=O)(=O)Nc4nccs4)cc3)c2cc1OCCCN1CCOCC1', 'OVCAR-5 ovarian', 'growth', '%', 106),
  ('Cc1ccc([C@H]2c3[nH]c4ccccc4c3C[C@H]3C(=O)N(CCCCCCC(=O)NO)CC(=O)N23)cc1', 'OVCAR-5 ovarian', 'growth', '%', 44.7),
  ('CCn1c(Cc2ccccc2Nc2c(Cl)cccc2Cl)nnc1SCC(=O)Nc1ccccc1C(F)(F)F', 'OVCAR-5 ovarian', 'growth', '%', 110),
  ('O=C1SCN(Cc2ccccc2)CN1Cc1ccccc1', 'OVCAR-5 ovarian', 'growth', '%', 105),
  ('COc1cc2ccc(C(C)=O)cc2cc1OC', 'OVCAR-5 ovarian', 'growth', '%', 92.3),
  ('COc1cc(C2CC(c3cccc(Nc4ccnc5cc(Cl)ccc45)c3)=NN2C=O)cc(OC)c1OC (configuration not stated)', 'OVCAR-5 ovarian', 'growth', '%', 41.6),
  ('O=C1Nc2ccc(Br)cc2/C1=N/c1nc(-c2ccccc2)cs1', 'OVCAR-5 ovarian', 'growth', '%', 108),
  ('CC(=O)CC(c1ccc([N+](=O)[O-])cc1)c1c(O)c2ccccc2oc1=O (configuration not stated)', 'OVCAR-5 ovarian', 'growth', '%', 100),
  ('CCCCCCCCCCCCCCCCCC(=O)OCCCCCCCCCCCCC', 'OVCAR-5 ovarian', 'growth', '%', 113),
  ('COc1cc(CN(c2ccc(C)cc2)C2OC(=O)c3ccccc32)cc(OC)c1OC (configuration not stated)', 'OVCAR-5 ovarian', 'growth', '%', 40.3);

The measurements presented in this section are drawn from PubChem BioAssay (NCI).
